This collection of values is drawn from the Deep4Chem optical property database.

experimentSummary: solvent given as SMILES
particulars: in CCCCCO

| molecule | absorption maximum |
| --- | --- |
| CN(C)c1ccc(/C=C2/N=C(c3ccccc3)OC2=O)cc1 | 470 nm |
| C(=C\c1cccc2ccccc12)/c1ccc(-c2nnc(-c3ccc(-c4cc5ccccc5s4)cc3)o2)cc1 | 356 nm |
| COC(=O)C(Cc1ccc2oc(-c3ccc(N(c4ccccc4)c4ccccc4)cc3)nc2c1)NC(=O)OC(C)(C)C (configuration not stated) | 367.75 nm |
| COC1=C/C(=C\C=C2C=CN(Cc3ccc(Br)cc3)C=C2)C=CC1=O | 588 nm |
| COC(=O)C(Cc1ccc2oc(-c3ccc4c(c3)c3ccccc3n4-c3ccccc3)nc2c1)NC(=O)OC(C)(C)C (configuration not stated) | 327.3 nm |
| FC(F)(F)c1ccc(/C=C/c2ccc(-c3nnc(-c4ccc(-c5cc6ccccc6s5)cc4)o3)cc2)cc1 | 341 nm |
| O=C1CCCC2=C1CC1=C(CCCC1=O)N2NC(=O)c1ccc(O)cc1 | 376 nm |

====

experimentSummary: solvent given as SMILES
particulars: in CC#N
absorption maximum for assorted molecules
measurementName: absorption maximum (nm)

| molecule | measuredValue |
| --- | --- |
| COC1=[N+]2C(=C(c3ccccc3)c3ccc(OC)n3[B-]2(F)F)C=C1 | 510 |
| CCN(CC)c1ccc2cc(/C=C/c3ccccc3)c(=O)oc2c1 | 421 |
| O=[N+]([O-])c1ccc(C#Cc2ccccc2C#Cc2ccc([N+](=O)[O-])cc2)cc1 | 350 |
| N#Cc1ccc(/C=C/C=C/C2=NC3C(=O)NC(N)=NC3N2[C@H]2C[C@H](O)[C@@H](CO)O2)cc1 (stereo not given in full) | 387 |
| Clc1nc(Cl)nc(Nc2ccc3ccc4cccc5ccc2c3c45)n1 | 341 |

====

experimentSummary: solvent given as SMILES
particulars: in CC(C)=O
Threshold rule: absorption maximum greater than or equal to 400 nm is rule met; below that, rule not met.

| compound | answerLabel |
| --- | --- |
| c1ccc(-c2nn(-c3ccccc3)c3nc4ccc(N(c5ccccc5)c5ccccc5)cc4cc23)cc1 | rule met |
| CN(C)c1ccc(/C=C2/N=C(c3ccccc3)OC2=O)cc1 | rule met |
| CCC1=C(C)C(=O)n2c1cc1c(C)c(CCC(=O)O)c(C)n1c2=O | rule met |
| CSc1cc(-c2cc3cc4c5c(c3oc2=O)CCCN5CCC4)oc(=O)c1C#N | rule met |
| CCN(CC)c1ccc2cc(/C=C/C3=CC(/C=C/c4cc5ccc(N(CC)CC)cc5oc4=O)=[O+][B-](F)(F)O3)c(=O)oc2c1 | rule met |
| CC1=[N+]2C(=C(c3ccc(N(C)C)cc3)c3ccc(C)n3[B-]2(F)F)C=C1 | rule met |
| CN(C)c1ccc2nc(/C=C/c3cc4c5c(c3)CCCN5CCC4)c(=O)oc2c1 | rule met |
| CN(C)c1ccc(/C=C/C=N/N=C/c2ccc3ccc4cccc5ccc2c3c45)cc1 | rule met |
| CN(C)c1ccc(/C=C2\CCCC2=O)cc1 | rule not met |
| COC(=O)C(Cc1ccc2oc(-c3ccc(N(c4ccccc4)c4ccccc4)cc3)nc2c1)NC(=O)OC(C)(C)C (configuration not stated) | rule not met |
| CC(=O)O[B-]1(OC(C)=O)OC(/C=C/C=C/c2ccccc2)=CC(/C=C/C=C/c2ccccc2)=[O+]1 | rule met |
| CN(C)c1ccc(C#Cc2ccccc2)cc1 | rule not met |
| COc1ccc(-c2cc(-c3ccc(C)cc3)nc3c(C#N)c(N4CCCC4)nc(N)c23)cc1 | rule met |
| O=C1CCCC2=C1CC1=C(CCCC1=O)N2NC(=O)c1ccc(O)cc1 | rule not met |
| Nc1ccc(C#Cc2ccc3ccc4ccc(C#Cc5ccc(N)cc5)c5ccc2c3c45)cc1 | rule met |
| O=C(N/N=C/c1ccccc1O)c1ccccc1 | rule met |
| c1ccc(-c2ccc(-c3ccc(-n4c5ccccc5c5ccccc54)cc3)c3nsnc23)cc1 | rule not met |
| O=S(=O)(c1ccc(-c2ccc(-c3nc4c5ccccc5c5ccccc5c4n3-c3ccccc3)cc2)cc1)c1ccc(-c2ccc(-c3nc4c5ccccc5c5ccccc5c4n3-c3ccccc3)cc2)cc1 | rule not met |
| CN(C)c1ccc2cc(C3=[O+][B-](F)(F)OC(c4ccccc4)=C3)ccc2c1 | rule met |
| CN(C)c1ccc(/C=C/C=C2\CC/C(=C\C=C\c3ccc(N(C)C)cc3)C2=O)cc1 | rule met |
| CCN(CC)c1ccc2cc(/C=C/C(O)=C3\CC/C(=C\c4cc5ccc(N(CC)CC)cc5oc4=O)C3=O)c(=O)oc2c1 | rule met |
| CCC1=C(C)C(=O)n2c1cc1c(CCC(=O)OC)c(C)c(C)n1c2=O | rule met |
| O=C(N/N=C/c1ccccc1O)c1ccc([N+](=O)[O-])cc1 | rule not met |
| O=Cc1cc(O)c(C=O)cc1O | rule met |
| O=C1/C(=C\c2ccc(N(c3ccccc3)c3ccccc3)cc2)S(=O)(=O)c2ccccc21 | rule met |
| C(=C\c1cccc2ccccc12)/c1ccc(-c2nnc(-c3ccc(-c4cc5ccccc5s4)cc3)o2)cc1 | rule not met |
| CCCCN1\C(=C/C=C/C=C/C2=[N+](CCCC)c3ccc4cc(Br)ccc4c3C2(C)C)C(C)(C)c2c1ccc1cc(Br)ccc21 | rule met |
| CCCCCCCCC1(CCCCCCCC)c2cc(-c3ccc(C(F)(F)F)cc3)ccc2-c2ccc(N(c3ccc(-n4c5ccccc5c5ccccc54)cc3)c3ccc4c(c3)C(CCCCCCCC)(CCCCCCCC)c3cc(-c5ccc(C(F)(F)F)cc5)ccc3-4)cc21 | rule not met |
| F[B-]1(F)n2cccc2C=C2C=CC=[N+]21 | rule met |
| CCN(CC)c1ccc2cc(/C(Cl)=C/C=C/C(=C(C#N)C#N)c3ccc4c(c3)c3ccccc3n4CC)c(=O)oc2c1 | rule met |
| CCN(CC)c1ccc(/C=C/C2=[O+][B-](F)(F)Oc3c2c(=O)oc2cc(N(CC)CC)ccc32)cc1 | rule met |
| CN(C)c1ccc2c(c1)C(=O)NC2=O | rule not met |
| COC1=C/C(=C\C=C2C=CN(Cc3ccc(Br)cc3)C=C2)C=CC1=O | rule met |

====

experimentSummary: solvent given as SMILES
particulars: in C1CCOC1

| molSmiles | endpointUnit | absorption maximum |
| --- | --- | --- |
| F[B-]1(F)n2c(nc(-c3ccccc3)c2-c2ccccc2)-c2cccc[n+]21 | nm | 404 |
| F[B-]1(F)n2c(c3cccc4cccc2c43)=Nc2cccc(Cl)[n+]21 | nm | 476 |
| C(=C(c1ccccc1)c1ccccc1)c1ccc(-c2cc(-c3ccc(C=C(c4ccccc4)c4ccccc4)cc3)cc(-c3ccc(C=C(c4ccccc4)c4ccccc4)cc3)c2)cc1 | nm | 333 |
| O=C1c2ccccc2C(=O)c2cc(-c3ccc(N(c4ccccc4)c4ccccc4)cc3)ccc21 | nm | 447 |
| CC1=N/C(=C\c2ccccc2N)C(=O)N1C | nm | 430 |
| Cc1ccc(-c2cnc3nn4ccccc4c3c2)cc1 | nm | 386 |

====

experimentSummary: solvent given as SMILES
particulars: in CO

| compound | absorption maximum, nm |
| --- | --- |
| c1ccc(-c2nc(-c3c[nH]c4ccccc34)n3ccccc23)cc1 | 372 |
| ClC1=CN2C[n+]3cc(Cl)ccc3N=C2C=C1 | 433 |
| CN(C)c1ccc(/C=C/C=C2\CC/C(=C\C=C\c3ccc(N(C)C)cc3)C2=O)cc1 | 523 |
| CN(CCO)c1ccc(/N=N/c2ccc([N+](=O)[O-])cc2)cc1 | 487 |
| COc1cccc(-c2[nH]c(=O)n3c2-c2ccccc2C3=O)c1O | 395 |
| COc1ccc(/C=C/c2cc[n+]3ccc(/C=C/c4ccc(OC)cc4)cc3c2)cc1 | 444 |
| Cc1ccc(-c2nc(-c3cccc(O)c3)[nH]c2-c2ccc(C)cc2)cc1 | 300 |
| CC[n+]1c(C=C2C(=O)C(C=C3N(C)c4ccccc4C3(C)C)=C2[O-])sc2ccccc21 | 635 |
| Clc1ccc(/C=C/c2nc3ccccc3s2)cc1 | 340 |
| O=C1C=C(Nc2ccccc2)C(=O)c2ccccc21 | 466 |
| CN1/C(=C/C=C(/C=C/c2sc3ccccc3[n+]2C)c2ccc(F)cc2)Sc2ccccc21 | 646 |
| Cc1ccc(NC(=O)c2sc(Br)nc2C)cc1 | 282.1 |
| Cc1c2oc3c(C)c(N)cc(C(=O)NC4OC(=O)C(C(C)C)N(C)C(=O)CN(C)C(=O)C5CCCN5C(=O)C(C(C)C)NC4=O)c3nc-2c(C(=O)NC2OC(=O)C(C(C)C)N(C)C(=O)CN(C)C(=O)C3CCCN3C(=O)C(C(C)C)NC2=O)c(N)c1=O (centres undefined) | 529.7 |
| O=C(O)CCCc1cc2ccc3cccc4ccc(c1)c2c34 | 374 |
| CC(=O)OCCOCCN1C(=O)c2cc(NCCOCCO)c3c4c(cc(NCCOCCO)c(c24)C1=O)C(=O)N(CCOCCOC(C)=O)C3=O | 604 |
| O=C(NCc1cc(=O)oc2cc(O)c(Br)cc12)c1cccnc1 | 372 |
| CCOC(=O)CCOc1ccccc1C(c1c(C)[nH]c2ccccc12)c1c(C)[nH]c2ccccc12 | 291 |
| CC(C)(C)c1ccc2c(c1)c1cc(C(C)(C)C)ccc1n2-c1ccc(C#Cc2cccc(C#Cc3ccc(-n4c5ccc(C(C)(C)C)cc5c5cc(C(C)(C)C)ccc54)cc3)c2)cc1 | 338 |
| FC(F)(F)c1ccc(/C=C/c2ccc(-c3nnc(-c4ccc(-c5cc6ccccc6s5)cc4)o3)cc2)cc1 | 337 |
